What pKd was measured for each of the following?
Target: RSV prefusion F (preF), subtype A (respiratory syncytial virus, subtype A, UniProt P03420 26-513)
Assay: BLI, IgG
Answers are plain numbers, as −log10 of the molar value.

Known pKd results, listed for orientation:
binder	pKd
ADI-21063 (antibody, V domains shown) VH: EVQLVESGGGLVQPGGSLRLSCSASGFTFRTYVMQWVRQAPGKGLEYVSAISSDGGSTDYADSVKGRFTVSRDNSKNTLYLQMSSLRAEDTAVYYCVKRGEGGNDYLYYYMDVWGKGTTVTVSS VL: DIQVTQSPSSLSASVGDRVTITCRASQSITNYLNWYQQKPGKAPKVLIYAASSLQSGVPSRFSGSGSGTDFTLTISSLQPEDFATYYCQQSYLRPPTFGGGTKVEIK	9.08
ADI-14575 (antibody, V domains shown) VH: QVQLVQSGAEVKKPGSSVKVSCKASGGTFSSYTISWVRQAPGQGLEWMGRIIPILGIANYAQKFQGRVTITADKSTSTAYMELSSLRSEDTAVYYCARPSSSSFAFDYWGQGTLVTVSS VL: QSVLTQPASVSGSPGQSITISCTGTSSDVGGYNYVSWYQQHPGKAPKLMIYDVSNRPSGVSNRFSGSKSGNTASLTISGLQAEDEADYYCSSYTSSSTPVVFGGGTKVTVL	7.95
ADI-20996 (antibody, V domains shown) VH: QVQLVESGPALVKPTQTLTLTCTFSGFSLTTRGMCVSWIRQPPGKALEWLARIDWDDDKYYSTSLKTRLTISKDTSKNQVVLTMTNMDPVDTATYYCARASTLTTAGYYLHYKDVWGNGTTVTVSS VL: DIRMTQSPSSLSASVGDRVTITCRASQSIGTYLNWFQQKPGKAPNLLIYAASILHSGVPSRFSGSGSGTDFTLTIRTLQPEDFATYYCQQSYPTVTFGQGTKVEIK	8.99
ADI-21033 (antibody, V domains shown) VH: QVQLVQSGAEVRKPGDSLKISCKFSENIFTTYYWTGWVRQMPGRGLEWMGIIFPGDSDTRYSPSFQGHVTISVDKSIATAFLQWSSLKASDSAMYYCARAKYEGSFDMWGQGTMVTVSS VL: DIQVTQSPSSLSASVGDRVSITCQASQDIRNRLNWYQQKPGKAPKLLIYDASILETGVPSRFSGSGSGTDFTFSISSLQPEDFATYYCQQYDSFSLFTFGPGTKVEIK	9.71

Next up:
Prompt: Entry ADI-21004 (antibody, V domains shown) VH: QVQLQESGGGVVQPGRSLTLSCAASGFTFSSYGMHWVRQAPGKGLDWVAEIWYDGSNKYYVDSVKGRFTISRDNSKNTLYLQMKSLRAEDTAIYYCARDGGYESPFFDKWGQGTLVTVSS VL: EIVMTQSPDSLGVSLGERATINCKSSQSLYTSNHENSLAWYQQKPGQPPRLLIYWASTRELGVPDRFSGSGSGTDFTLTISSLQAEDVAVYYCQQYHTTPLTFGPGTKVEIK has what pKd?
Response: 8.34
